// provenance: patent US20250188092A1

// values below are DPX2 Viability @ 25 μM; system is DPX2 cells
Report the figure in % without appending any unit label.

CO[C@H]1/C=C/O[C@@]2(C)Oc3c(C)c(O)c4c(=O)c(c5oc6cc(N7CCC(CC(=O)O)CC7)cc(N7CCC(CC(=O)O)CC7)c6nc-5c4c3C2=O)NC(=O)/C(C)=C\C=C\[C@H](C)[C@H](O)[C@@H](C)[C@@H](O)[C@@H](C)[C@H](OC(C)=O)[C@@H]1C [Compound 17v] :: 100
CO[C@H]1/C=C/O[C@@]2(C)Oc3c(C)c(O)c4c(=O)c(c5oc6cc(N7CCN(C(=O)c8cccc(-c9ccccn9)c8)CC7)cc(OCc7ccc(CN8CCOCC8)cc7)c6nc-5c4c3C2=O)NC(=O)/C(C)=C\C=C\[C@H](C)[C@H](O)[C@@H](C)[C@@H](O)[C@@H](C)[C@H](OC(C)=O)[C@@H]1C [Compound 17r] :: 94

Lookup: Jot down DPX2 Viability @ 25 μM (DPX2 cells) of CO[C@H]1/C=C/O[C@@]2(C)Oc3c(C)c(O)c4c(=O)c(c5oc6cc(N7CCC(CC(=O)O)CC7)cc(OCc7ccc(CN8CCOCC8)cc7)c6nc-5c4c3C2=O)NC(=O)/C(C)=C\C=C\[C@H](C)[C@H](O)[C@@H](C)[C@@H](O)[C@@H](C)[C@H](OC(C)=O)[C@@H]1C [Compound 17l] .
Found: 102

Lookup: Jot down DPX2 Viability @ 25 μM (DPX2 cells) of CO[C@H]1/C=C/O[C@@]2(C)Oc3c(C)c(O)c4c(=O)c(c5oc6cc(C)cc(N7CCN(C)CC7)c6nc-5c4c3C2=O)NC(=O)/C(C)=C\C=C\[C@H](C)[C@H](O)[C@@H](C)[C@@H](O)[C@@H](C)[C@H](OC(C)=O)[C@@H]1C [Compound 30a] .
Found: 47

----------
- Tested on: DPX2 cells
- test parameters: 6.25 μM, 24 h
metric: DPX2 Viability @ 6.25 μM (%)
Report the figure in % without appending any unit label.

// below: answered compounds
CO[C@H]1/C=C/O[C@@]2(C)Oc3c(C)c(O)c4c(=O)c(c5oc6cccc(OCc7ccc(CN8CCOCC8)cc7)c6nc-5c4c3C2=O)NC(=O)/C(C)=C\C=C\[C@H](C)[C@H](O)[C@@H](C)[C@@H](O)[C@@H](C)[C@H](OC(C)=O)[C@@H]1C [Compound 16d] :: 79
CCC(=O)N1CCN(Cc2cccc(COc3cccc4oc5c6c(=O)c7c(O)c(C)c8c(c7c-5nc34)C(=O)[C@@](C)(O/C=C/[C@H](OC)[C@@H](C)[C@@H](OC(C)=O)[C@H](C)[C@H](O)[C@H](C)[C@@H](O)[C@@H](C)/C=C/C=C(/C)C(=O)N6)O8)c2)CC1 [Compound 11d] :: 77
CO[C@H]1/C=C/O[C@@]2(C)Oc3c(C)c(O)c4c(=O)c(c5oc6cc(N7CCN(C(=O)C(C)(C)C)CC7)cc(OCc7ccc(CN8CCOCC8)cc7)c6nc-5c4c3C2=O)NC(=O)/C(C)=C\C=C\[C@H](C)[C@H](O)[C@@H](C)[C@@H](O)[C@@H](C)[C@H](OC(C)=O)[C@@H]1C [Compound 17f] :: 85
CO[C@H]1/C=C/O[C@@]2(C)Oc3c(C)c(O)c4c(=O)c(c5oc6cc(N7CCN(CC(=O)O)CC7)cc(C)c6nc-5c4c3C2=O)NC(=O)/C(C)=C\C=C\[C@H](C)[C@H](O)[C@@H](C)[C@@H](O)[C@@H](C)[C@H](OC(C)=O)[C@@H]1C [Compound 29h] :: 109
CO[C@H]1/C=C/O[C@@]2(C)Oc3c(C)c(O)c4c(=O)c(c5oc6cc(N7CCOC(CN(C)C)C7)cc(OCc7ccc(CN8CCOCC8)cc7)c6nc-5c4c3C2=O)NC(=O)/C(C)=C\C=C\[C@H](C)[C@H](O)[C@@H](C)[C@@H](O)[C@@H](C)[C@H](OC(C)=O)[C@@H]1C (stereo partly shown) [Compound 17o] :: 96
CO[C@H]1/C=C/O[C@@]2(C)Oc3c(C)c(O)c4c(=O)c(c5oc6cc(N7CCS(=O)(=O)CC7)cc(OCc7ccc(CN8CCOCC8)cc7)c6nc-5c4c3C2=O)NC(=O)/C(C)=C\C=C\[C@H](C)[C@H](O)[C@@H](C)[C@@H](O)[C@@H](C)[C@H](OC(C)=O)[C@@H]1C [Compound 17j] :: 2

Let's switch to this compound now.
Lookup: Jot down DPX2 Viability @ 6.25 μM (DPX2 cells) of CO[C@H]1/C=C/O[C@@]2(C)Oc3c(C)c(O)c4c(=O)c(c5oc6cc(N7CCN(CC(C)C)CC7)cc(N7CCN(CC(C)C)CC7)c6nc-5c4c3C2=O)NC(=O)/C(C)=C\C=C\[C@H](C)[C@H](O)[C@@H](C)[C@@H](O)[C@@H](C)[C@H](OC(C)=O)[C@@H]1C [Compound 17u] .
Found: 106
